Test system: Axin2 accumulation in SW480 cells
test_name: Axin2 384 immunofluorescence assay
Assay type: cell-based
settings: Homo sapiens; SW480 cells, 24 hours; read-out: Axin2 384 IF EC50
pEC50: −log10 of the molar value.
Classify as follows. Reported pEC50 greater than or equal to 7: fulfilled. Reported pEC50 below: not fulfilled.

{"columns": ["compound", "qualitative_label"],
 "data": [
  ["O=C(CCCc1nc2ccccc2c(=O)[nH]1)N1CCC(n2c(=O)[nH]c3ccccc32)CC1", "not fulfilled"],
  ["O=C(CCCc1nc2ccccc2c(=O)[nH]1)N1CCC(n2c(=O)[nH]c3cccnc32)CC1", "not fulfilled"],
  ["O=C(CCSc1nc2ccccc2c(=O)[nH]1)N[C@H]1CC[C@H](c2nnc(-c3cccc(Cl)c3)o2)CC1", "fulfilled"],
  ["O=C(CCCc1nc2ccccc2c(=O)[nH]1)N[C@H]1CC[C@H](Oc2ccncc2)CC1", "not fulfilled"],
  ["Cc1cccc(-c2nnc(C3CCN(C(=O)CCCc4nc5ccccc5c(=O)[nH]4)CC3)o2)c1", "not fulfilled"],
  ["COc1ccc(-c2nnc([C@H]3CC[C@H](NC(=O)CCCc4nc5ccccc5c(=O)[nH]4)CC3)o2)cc1", "fulfilled"],
  ["N#Cc1cccc(-c2nnc([C@H]3CC[C@H](NC(=O)CCc4nc5ccccc5c(=O)[nH]4)CC3)o2)c1", "not fulfilled"],
  ["O=C(CCc1nc2ccccc2c(=O)[nH]1)N1CCC(c2nnc(-c3ccccc3)o2)CC1", "not fulfilled"],
  ["O=C(CCCc1nc2ccccc2c(=O)[nH]1)N[C@H]1CC[C@H](c2nnc(-c3ccc(Cl)cc3)o2)CC1", "fulfilled"],
  ["O=C(CCCc1nc2ccccc2c(=O)[nH]1)N1CCC(c2nnc(-c3ccc(Cl)cc3)o2)CC1", "not fulfilled"],
  ["O=C(CCSCc1nc2ccccc2c(=O)[nH]1)N[C@H]1CC[C@H](c2nnc(-c3ccccc3)o2)CC1", "not fulfilled"],
  ["N#Cc1cccc(O[C@H]2CC[C@H](NC(=O)CCCc3nc4ccccc4c(=O)[nH]3)CC2)c1", "not fulfilled"],
  ["O=C(CCSc1nc2ccccc2c(=O)[nH]1)N[C@H]1CC[C@H](c2nnc(-c3ccc(F)c(Cl)c3)o2)CC1", "fulfilled"],
  ["O=C(CCCc1nc2ccccc2c(=O)[nH]1)N[C@H]1CC[C@H](c2nnc(-c3ccc(F)cc3)o2)CC1", "fulfilled"],
  ["O=C(CCc1nc2ccccc2c(=O)[nH]1)N[C@H]1CC[C@H](n2c(=O)[nH]c3ccc(Cl)cc32)CC1", "not fulfilled"],
  ["O=C(CCc1nc2ccccc2c(=O)[nH]1)N[C@H]1CC[C@H](c2nnc(-c3ccc(Cl)cc3)o2)CC1", "not fulfilled"],
  ["O=C(CCCc1nc2ccccc2c(=O)[nH]1)N[C@H]1CC[C@H](c2nnc(-c3cccc(Cl)c3)o2)CC1 [Example 36, 2,2,2-trifluoroacetate]", "fulfilled"],
  ["N#Cc1ccc(O[C@H]2CC[C@H](NC(=O)CCCc3nc4ccccc4c(=O)[nH]3)CC2)cc1", "fulfilled"],
  ["O=C(CCSc1nccc(=O)[nH]1)N[C@H]1CC[C@H](c2nnc(-c3ccccc3)o2)CC1", "not fulfilled"],
  ["Cc1ccc(-c2nnc(C3CCN(C(=O)CCCc4nc5ccccc5c(=O)[nH]4)CC3)o2)cc1", "not fulfilled"],
  ["O=C(CCCc1nc2ccccc2c(=O)[nH]1)N1CCC(c2nnc(-c3ccccc3)o2)CC1", "not fulfilled"]
]}
